Measured Target: Human immunodeficiency virus type 1 reverse transcriptase (Human immunodeficiency virus 1, UniProt Q72547)
Recorded Endpoint: pIC50
Answers are plain numbers, as −log10 of the molar value.

[[record]]
input_smiles = "COc1ccc(S(=O)(=O)N(CC(C)C)C[C@@H](O)[C@H](Cc2ccccc2)NC(=O)c2coc3ccc(O)cc23)cc1"
recorded_endpoint = "pIC50"
result_number = 4.08

[[record]]
input_smiles = "COc1ccc(S(=O)(=O)N(CC(C)C)C[C@@H](O)[C@H](Cc2ccccc2)NC(=O)c2coc3cc(O)c(O)cc23)cn1"
recorded_endpoint = "pIC50"
result_number = 5.12

[[record]]
input_smiles = "COc1ccc(S(=O)(=O)N(CC(C)C)C[C@@H](O)[C@H](Cc2ccccc2)NC(=O)c2cc3cc(O)ccc3o2)cn1"
recorded_endpoint = "pIC50"
result_number = 3.93


Consider the compound "COc1ccc(S(=O)(=O)N(CC(C)C)C[C@@H](O)[C@H](Cc2ccccc2)NC(=O)c2cc3ccc(O)cc3o2)cn1" and give its recorded pIC50.
3.65
